I'd be grateful if you could share measured log10 IC50 for these entries.
biological target: Phosphatidylinositol 3-kinase regulatory subunit alpha/4,5-bisphosphate 3-kinase catalytic subunit alpha isoform (Homo sapiens, UniProt P42336); assay: PI3K Inhibition Assay; details: pH 7.5; 22 °C
Sequence (P27986 whole entry, canonical isoform): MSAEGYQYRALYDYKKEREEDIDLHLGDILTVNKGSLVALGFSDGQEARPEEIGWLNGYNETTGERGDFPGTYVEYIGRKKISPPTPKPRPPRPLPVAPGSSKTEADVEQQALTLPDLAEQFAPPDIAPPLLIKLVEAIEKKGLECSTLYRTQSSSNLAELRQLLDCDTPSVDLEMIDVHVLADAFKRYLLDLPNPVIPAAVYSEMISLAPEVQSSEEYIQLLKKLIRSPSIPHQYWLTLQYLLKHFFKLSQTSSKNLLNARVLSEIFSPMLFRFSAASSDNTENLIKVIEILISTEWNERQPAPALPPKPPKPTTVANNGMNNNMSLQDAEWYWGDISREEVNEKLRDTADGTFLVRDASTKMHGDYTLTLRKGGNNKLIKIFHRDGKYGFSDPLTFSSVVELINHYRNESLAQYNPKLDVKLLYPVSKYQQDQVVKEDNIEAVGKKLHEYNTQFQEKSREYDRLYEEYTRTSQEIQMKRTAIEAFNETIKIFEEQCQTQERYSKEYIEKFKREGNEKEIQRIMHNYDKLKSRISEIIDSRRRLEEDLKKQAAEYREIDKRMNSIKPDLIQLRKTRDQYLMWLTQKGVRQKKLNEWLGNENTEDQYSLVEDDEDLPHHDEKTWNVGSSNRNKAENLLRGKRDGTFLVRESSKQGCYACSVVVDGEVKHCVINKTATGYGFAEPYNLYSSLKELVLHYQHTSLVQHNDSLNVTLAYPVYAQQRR
Sequence (P42336 whole entry, canonical isoform): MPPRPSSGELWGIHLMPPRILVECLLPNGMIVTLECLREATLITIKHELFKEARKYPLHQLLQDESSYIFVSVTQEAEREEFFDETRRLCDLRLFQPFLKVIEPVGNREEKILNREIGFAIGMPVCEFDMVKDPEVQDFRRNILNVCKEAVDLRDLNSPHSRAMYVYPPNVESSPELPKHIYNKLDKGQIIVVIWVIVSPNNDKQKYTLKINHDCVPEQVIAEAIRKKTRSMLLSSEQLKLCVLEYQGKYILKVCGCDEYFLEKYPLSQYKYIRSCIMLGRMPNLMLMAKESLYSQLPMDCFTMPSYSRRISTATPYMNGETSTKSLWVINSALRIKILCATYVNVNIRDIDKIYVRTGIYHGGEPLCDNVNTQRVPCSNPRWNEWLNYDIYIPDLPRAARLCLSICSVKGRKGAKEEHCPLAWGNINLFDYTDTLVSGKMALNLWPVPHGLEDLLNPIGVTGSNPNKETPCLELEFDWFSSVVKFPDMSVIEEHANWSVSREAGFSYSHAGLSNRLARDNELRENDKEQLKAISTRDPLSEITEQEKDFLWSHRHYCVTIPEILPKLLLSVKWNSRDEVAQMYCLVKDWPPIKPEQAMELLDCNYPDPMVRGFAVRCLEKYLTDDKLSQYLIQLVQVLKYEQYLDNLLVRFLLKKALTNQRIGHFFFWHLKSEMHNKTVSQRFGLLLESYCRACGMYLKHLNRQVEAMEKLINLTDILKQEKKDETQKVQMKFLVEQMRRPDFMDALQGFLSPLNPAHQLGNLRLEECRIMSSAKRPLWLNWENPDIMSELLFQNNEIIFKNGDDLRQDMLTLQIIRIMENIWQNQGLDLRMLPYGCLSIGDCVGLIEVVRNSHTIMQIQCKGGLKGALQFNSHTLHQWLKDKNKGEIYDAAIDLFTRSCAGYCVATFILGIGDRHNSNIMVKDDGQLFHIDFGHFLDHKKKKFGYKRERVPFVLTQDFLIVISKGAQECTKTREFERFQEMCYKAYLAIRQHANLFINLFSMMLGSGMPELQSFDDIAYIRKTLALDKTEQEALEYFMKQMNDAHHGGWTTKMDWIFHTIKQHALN
Please keep in mind that the values are log10 of IC50 expressed in nM.

Record excerpt, results attached:
{"columns": ["compound", "reading"],
 "data": [
  ["CCCCN(C)C=C1C(=O)O[C@H](COC)[C@]2(C)C3=C(C(=O)C(=O)C12)C1CC[C@H](O)[C@@]1(C)C[C@H]3OC(C)=O (stereo not given in full)", 2.80],
  ["CCN(C=C1C(=O)O[C@H](COC)[C@]2(C)C3=C(C(=O)C(=O)C12)C1CC[C@H](O)[C@@]1(C)C[C@H]3O)CC (stereo not given in full)", 3.89],
  ["COC[C@H]1OC(=O)C(=CN(C)C(C)(C)C)C2C(=O)C(=O)C3=C([C@H](OC(C)=O)C[C@@]4(C)C3CC[C@@H]4O)[C@]21C (stereo not given in full)", 2.64],
  ["COC[C@H]1OC(=O)C(=CN(C)CCCN(C)C)C2C(=O)C(=O)C3=C([C@H](O)C[C@@]4(C)C3CC[C@@H]4O)[C@]21C (stereo not given in full)", 2.80]
]}

Dear colleague, could you send me log10 IC50 for each of the items below? Thanks.
1. COC[C@H]1OC(=O)C(=CN(CCO)C(C)(C)C)C2C(=O)C(=O)C3=C([C@H](OC(C)=O)C[C@@]4(C)C3CC[C@@H]4O)[C@]21C (stereo not given in full)
2. COC[C@H]1OC(=O)C(=CN(CCN(C)C)C(C)(C)C)C2C(=O)C(=O)C3=C([C@H](OC(C)=O)C[C@@]4(C)C3CC[C@@H]4O)[C@]21C (stereo not given in full)
3. C=CCN(C=C1C(=O)O[C@H](COC)[C@]2(C)C3=C(C(=O)C(=O)C12)C1CCC(=O)[C@@]1(C)C[C@H]3OC(C)=O)CC=C (stereo not given in full) [PX-866]

[3.05, 0.98, 1.94]

Value sought for every listed compound: log10 IC50.
1. COC[C@H]1OC(=O)C(=CN(C)CCCN(C)C)C2C(=O)C(=O)C3=C([C@H](OC(C)=O)C[C@@]4(C)C3CC[C@@H]4O)[C@]21C (stereo not given in full)
2. COC[C@H]1OC(=O)c2coc3c2[C@@]1(C)C1=C(C3=O)C2CC[C@H](O)[C@@]2(C)C[C@H]1OC(C)=O (stereo not given in full)
3. CCN(C=C1C(=O)O[C@H](COC)[C@]2(C)C3=C(C(=O)C(=O)C12)C1CC[C@H](O)[C@@]1(C)C[C@H]3OC(C)=O)CC (stereo not given in full)
4. COC[C@H]1OC(=O)C(=CN(CCN(C)C)Cc2ccccc2)C2C(=O)C(=O)C3=C([C@H](OC(C)=O)C[C@@]4(C)C3CC[C@@H]4O)[C@]21C (stereo not given in full)
5. COC[C@H]1OC(=O)C(=CN2CCCC2)C2C(=O)C(=O)C3=C([C@H](OC(C)=O)C[C@@]4(C)C3CC[C@@H]4O)[C@]21C (stereo not given in full)

0.81
0.43
2.58
1.82
2.70

* * *

molecular target: Phosphatidylinositol 3-kinase regulatory subunit beta/4,5-bisphosphate 3-kinase catalytic subunit beta isoform (Homo sapiens, UniProt P42338); assay: PI3K Inhibition Assay; conditions: pH 7.5; 22 °C
Sequence (P42338 whole entry, canonical isoform): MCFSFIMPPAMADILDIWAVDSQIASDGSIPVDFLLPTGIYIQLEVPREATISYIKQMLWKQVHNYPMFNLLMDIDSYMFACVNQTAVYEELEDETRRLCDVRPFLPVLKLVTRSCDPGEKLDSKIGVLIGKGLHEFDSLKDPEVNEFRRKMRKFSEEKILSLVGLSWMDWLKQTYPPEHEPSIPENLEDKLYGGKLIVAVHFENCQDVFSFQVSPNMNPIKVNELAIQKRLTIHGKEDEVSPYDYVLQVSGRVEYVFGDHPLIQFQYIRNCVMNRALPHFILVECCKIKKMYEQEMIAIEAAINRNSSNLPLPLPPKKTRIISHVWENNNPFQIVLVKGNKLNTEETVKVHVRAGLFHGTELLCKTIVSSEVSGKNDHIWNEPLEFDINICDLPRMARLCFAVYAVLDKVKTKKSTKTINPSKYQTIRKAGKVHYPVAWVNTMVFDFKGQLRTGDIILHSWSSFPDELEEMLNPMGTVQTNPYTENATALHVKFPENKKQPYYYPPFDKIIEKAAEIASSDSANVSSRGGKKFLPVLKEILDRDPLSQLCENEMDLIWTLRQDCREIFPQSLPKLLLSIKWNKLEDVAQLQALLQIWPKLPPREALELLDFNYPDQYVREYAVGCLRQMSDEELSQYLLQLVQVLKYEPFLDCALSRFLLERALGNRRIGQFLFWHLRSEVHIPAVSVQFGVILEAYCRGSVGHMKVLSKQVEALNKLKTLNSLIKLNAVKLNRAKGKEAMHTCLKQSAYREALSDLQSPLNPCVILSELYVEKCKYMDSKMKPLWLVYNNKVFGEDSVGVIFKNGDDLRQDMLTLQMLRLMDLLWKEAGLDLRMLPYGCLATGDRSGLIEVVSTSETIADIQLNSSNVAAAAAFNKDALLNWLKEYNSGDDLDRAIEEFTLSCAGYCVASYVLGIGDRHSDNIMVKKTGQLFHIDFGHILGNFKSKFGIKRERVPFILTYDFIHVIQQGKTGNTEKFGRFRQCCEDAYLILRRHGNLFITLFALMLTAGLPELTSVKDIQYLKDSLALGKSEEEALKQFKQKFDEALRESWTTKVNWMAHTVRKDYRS
Sequence (O00459 whole entry, further chain, canonical isoform): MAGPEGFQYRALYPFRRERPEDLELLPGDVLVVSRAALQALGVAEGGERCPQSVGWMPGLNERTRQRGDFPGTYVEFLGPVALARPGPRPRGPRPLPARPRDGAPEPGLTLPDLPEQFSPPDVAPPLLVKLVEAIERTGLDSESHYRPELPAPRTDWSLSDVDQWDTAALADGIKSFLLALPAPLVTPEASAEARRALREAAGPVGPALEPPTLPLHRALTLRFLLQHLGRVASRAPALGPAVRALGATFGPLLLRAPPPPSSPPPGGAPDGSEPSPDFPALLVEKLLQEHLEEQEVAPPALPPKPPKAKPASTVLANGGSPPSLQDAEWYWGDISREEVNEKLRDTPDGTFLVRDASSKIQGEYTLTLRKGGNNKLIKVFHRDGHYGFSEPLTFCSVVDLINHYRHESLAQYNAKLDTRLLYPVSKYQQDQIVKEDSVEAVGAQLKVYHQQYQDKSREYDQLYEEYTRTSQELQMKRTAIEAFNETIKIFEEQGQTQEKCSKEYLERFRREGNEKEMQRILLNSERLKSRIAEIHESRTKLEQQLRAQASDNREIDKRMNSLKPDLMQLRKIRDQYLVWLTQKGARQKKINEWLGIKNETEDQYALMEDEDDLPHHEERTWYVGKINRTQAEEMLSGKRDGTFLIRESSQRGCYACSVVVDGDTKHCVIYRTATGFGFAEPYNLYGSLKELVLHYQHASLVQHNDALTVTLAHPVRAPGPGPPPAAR
result_type: pIC50
One number for each entry, as −log10 of the molar value.

Recorded pIC50 for COC[C@H]1OC(=O)C(=CN(C)CCCN(C)C)C2C(=O)C(=O)C3=C([C@H](OC(C)=O)C[C@@]4(C)C3CC[C@@H]4O)[C@]21C (stereo partly specified) , please? 7.89

* * *

target: Phosphatidylinositol 3-kinase regulatory subunit beta/4,5-bisphosphate 3-kinase catalytic subunit delta isoform (Homo sapiens, UniProt O00329+O00459); assay: PI3K Inhibition Assay; conditions: pH 7.5; 22 °C
Sequence (O00329 whole entry, one chain of several, canonical isoform): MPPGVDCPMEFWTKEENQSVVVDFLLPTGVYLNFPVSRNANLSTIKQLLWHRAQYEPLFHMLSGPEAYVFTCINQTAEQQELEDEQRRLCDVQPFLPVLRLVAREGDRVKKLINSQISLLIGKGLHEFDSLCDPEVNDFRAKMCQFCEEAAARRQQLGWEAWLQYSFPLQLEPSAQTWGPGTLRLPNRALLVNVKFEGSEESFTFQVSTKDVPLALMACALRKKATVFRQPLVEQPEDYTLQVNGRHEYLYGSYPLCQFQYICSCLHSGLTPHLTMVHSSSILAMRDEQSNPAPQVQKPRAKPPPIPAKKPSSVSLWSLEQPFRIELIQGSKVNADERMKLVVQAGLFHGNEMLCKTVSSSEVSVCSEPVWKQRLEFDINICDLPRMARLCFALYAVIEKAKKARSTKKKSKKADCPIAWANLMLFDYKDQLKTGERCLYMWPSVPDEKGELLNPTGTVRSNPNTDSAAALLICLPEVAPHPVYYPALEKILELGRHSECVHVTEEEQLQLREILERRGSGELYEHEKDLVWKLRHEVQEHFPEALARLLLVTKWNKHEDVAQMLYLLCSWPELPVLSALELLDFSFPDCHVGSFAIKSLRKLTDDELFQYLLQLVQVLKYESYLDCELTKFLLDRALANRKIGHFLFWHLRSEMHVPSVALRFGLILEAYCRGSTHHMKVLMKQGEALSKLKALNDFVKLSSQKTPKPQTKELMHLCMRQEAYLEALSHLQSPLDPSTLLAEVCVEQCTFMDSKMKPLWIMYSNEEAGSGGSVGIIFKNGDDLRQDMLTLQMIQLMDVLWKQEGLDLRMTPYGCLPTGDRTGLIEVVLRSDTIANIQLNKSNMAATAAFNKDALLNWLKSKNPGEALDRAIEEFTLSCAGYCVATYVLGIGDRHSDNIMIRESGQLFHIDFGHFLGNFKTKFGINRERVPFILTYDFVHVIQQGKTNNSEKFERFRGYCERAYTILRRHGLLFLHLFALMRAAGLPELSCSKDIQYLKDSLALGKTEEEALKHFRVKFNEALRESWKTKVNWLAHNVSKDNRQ
result_type: IC50 (nM)
Answers are plain numbers, in nM.

Tell me the measured IC50 of COC[C@H]1OC(=O)C(=CN(C)CCCN(C)C)C2C(=O)C(=O)C3=C([C@H](OC(C)=O)C[C@@]4(C)C3CC[C@@H]4O)[C@]21C (stereo partly specified) , please. 11

* * *

biological target: Phosphatidylinositol 3-kinase regulatory subunit alpha/4,5-bisphosphate 3-kinase catalytic subunit alpha isoform (Homo sapiens); assay: PI3K Inhibition Assay
pIC50: −log10 of the molar value.
Param threshold (8) applies to pIC50; output yes when value >= threshold, no when value < threshold.

{"columns": ["compound", "label_class"],
 "data": [
  ["CCN(C=C1C(=O)O[C@H](COC)[C@]2(C)C3=C(C(=O)C(=O)C12)C1CC[C@H](O)[C@@]1(C)C[C@H]3OC(C)=O)CCN(C)C (stereo partly specified)", "yes"]
]}

Form field: pIC50 at least 8? Entry: COC[C@H]1OC(=O)C(=CN(C)CC(=O)OC(C)(C)C)C2C(=O)C(=O)C3=C([C@H](OC(C)=O)C[C@@]4(C)C3CC[C@@H]4O)[C@]21C (stereo partly specified) no

Check the entry COC[C@H]1OC(=O)C(=CN2CCN(CCN3CCOCC3)CC2)C2C(=O)C(=O)C3=C([C@H](OC(C)=O)C[C@@]4(C)C3CC[C@@H]4O)[C@]21C (stereo partly specified) : does pIC50 equal or exceed 8? no

Check this compound for pIC50 at or above 8: COC[C@H]1OC(=O)C(=CN(CCC#N)Cc2ccccc2)C2C(=O)C(=O)C3=C([C@H](OC(C)=O)C[C@@]4(C)C3CC[C@@H]4O)[C@]21C (stereo partly specified) no

* * *

molecular target: Phosphatidylinositol 3-kinase regulatory subunit alpha/4,5-bisphosphate 3-kinase catalytic subunit alpha isoform (Homo sapiens, UniProt P42336); experiment: PI3K Inhibition Assay; conditions: pH 7.5; 22 °C
pIC50: −log10 of the molar value.
result_type: pIC50

{"columns": ["compound", "pIC50"],
 "data": [
  ["COC[C@H]1OC(=O)C(=CNCCCN(C)C)C2C(=O)C(=O)C3=C([C@H](OC(C)=O)C[C@@]4(C)C3CC[C@@H]4O)[C@]21C (stereo partly drawn)", "< 5.00"],
  ["COC[C@H]1OC(=O)C(=CNC(C)(C)C)C2C(=O)C(=O)C3=C([C@H](OC(C)=O)C[C@@]4(C)C3CC[C@@H]4O)[C@]21C (stereo partly drawn)", "< 5.00"]
]}

Please turn your attention to the following entry.
# get_value(readout='pIC50', item= CCNC=C1C(=O)O[C@H](COC)[C@]2(C)C3=C(C(=O)C(=O)C12)C1CC[C@H](O)[C@@]1(C)C[C@H]3OC(C)=O (stereo partly drawn) ) < 5.00
